From: patent US20220064276A1

Listing of entries alongside the reported Kd.
target under test: T1, human GARP-proTGFβ1 complex (human, UniProt Q14392 18-627; P01137 30-390, limits assumed)
T1 construct: Exemplary entries; also called Hu GARP-proTGFβ1; huGARP proTGFb1
T1 sequence (Q14392 18-627 limits assumed, chain 1 of 2): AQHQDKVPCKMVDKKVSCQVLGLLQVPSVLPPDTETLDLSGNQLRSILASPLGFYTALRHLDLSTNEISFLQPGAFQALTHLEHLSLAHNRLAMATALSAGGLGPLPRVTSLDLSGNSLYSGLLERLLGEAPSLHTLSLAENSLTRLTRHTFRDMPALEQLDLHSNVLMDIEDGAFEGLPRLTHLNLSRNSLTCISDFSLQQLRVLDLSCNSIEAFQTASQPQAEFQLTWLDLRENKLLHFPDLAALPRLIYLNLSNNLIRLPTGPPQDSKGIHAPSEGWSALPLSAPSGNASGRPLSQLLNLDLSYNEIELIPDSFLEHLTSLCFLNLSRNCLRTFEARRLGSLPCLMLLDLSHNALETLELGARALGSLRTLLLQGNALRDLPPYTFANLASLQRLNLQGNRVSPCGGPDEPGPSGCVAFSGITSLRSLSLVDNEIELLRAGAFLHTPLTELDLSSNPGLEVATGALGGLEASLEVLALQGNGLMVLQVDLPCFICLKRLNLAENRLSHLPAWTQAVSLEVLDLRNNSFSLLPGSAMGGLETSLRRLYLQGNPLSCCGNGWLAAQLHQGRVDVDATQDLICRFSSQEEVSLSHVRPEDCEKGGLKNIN
T1 sequence (P01137 30-390 limits assumed, chain 2 of 2): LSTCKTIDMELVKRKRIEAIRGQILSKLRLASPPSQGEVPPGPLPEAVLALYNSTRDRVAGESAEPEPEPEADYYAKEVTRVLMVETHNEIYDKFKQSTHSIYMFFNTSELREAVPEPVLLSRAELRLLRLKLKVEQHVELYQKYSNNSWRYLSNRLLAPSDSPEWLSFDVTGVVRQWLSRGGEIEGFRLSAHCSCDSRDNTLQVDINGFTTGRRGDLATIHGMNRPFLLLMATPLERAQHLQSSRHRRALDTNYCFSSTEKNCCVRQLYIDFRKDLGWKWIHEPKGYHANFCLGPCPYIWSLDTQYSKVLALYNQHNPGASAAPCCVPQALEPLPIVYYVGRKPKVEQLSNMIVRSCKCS
run description: Octet BLI, Table 10 (repeats Table 9)
Give a bare numeral; the unit nM is implied.

binder="SR-AB31 (antibody, IgG1, V domains shown, Cycle 3, lineage SR-AB22) VH: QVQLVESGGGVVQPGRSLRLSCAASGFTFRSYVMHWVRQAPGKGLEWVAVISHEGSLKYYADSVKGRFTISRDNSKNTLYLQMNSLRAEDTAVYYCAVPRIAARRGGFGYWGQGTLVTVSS VL: NFMLTQPHSVSESPGKTVTISCTRSSGNIDNNYVQWYQQRPGSSPTTVIYEDNQRPSGVPDRFSGSIDSSSNSASLTISGLKTEDEADYYCQSYDFNNQGVVFGGGTKLTVL" measurement_units=nM number=11.2

## Task What does the data say about its Kd? Entry: SR-AB41 (antibody, IgG1, V domains shown, Cycle 3, lineage SR-AB23) VH: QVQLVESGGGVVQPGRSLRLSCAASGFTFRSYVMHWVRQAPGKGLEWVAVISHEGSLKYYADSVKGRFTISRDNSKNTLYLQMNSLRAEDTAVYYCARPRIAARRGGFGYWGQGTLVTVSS VL: NFMLTQPHSVSESPGKTVTISCTRSSGNIDNNYVQWYQQRPGSSPTTVIYEDNQRPSGVPDRFSGSIDSSSNSASLTISGLKTEDEADYYCQSYDYDNQAVVFGGGTKLTVL
## Result 764
